- testSystem: Human immunodeficiency virus type 1 protease (Human immunodeficiency virus 1, UniProt Q72874)
measurementType: pKi
Kindly note that pKi refers to -log10 of the concentration in mol/L and answer with the value alone.

Solved cases (5 shown):
COc1ccc(S(=O)(=O)N(CC2CCCC2)C[C@@H](O)CN2C(=O)CNC[C@@H]2Cc2ccccc2)cc1 ... 5.52
COc1ccc(S(=O)(=O)N(CC2CCCC2)C[C@@H](O)CN2C(=O)OC[C@@H]2Cc2ccccc2)cc1 ... 5.82
COc1ccc(S(=O)(=O)N(CC2CCCC2)C[C@@H](O)CN2C(=O)C3(CCCCC3)NC[C@@H]2Cc2ccccc2)cc1 ... 7.77
COc1ccc(S(=O)(=O)N(CC2CCCC2)C[C@@H](O)CN2C(=O)N(Cc3ccccc3)C[C@@H]2Cc2ccccc2)cc1 ... 7.82
COc1ccc(S(=O)(=O)N(CC2CCCC2)C[C@@H](O)CN2C(=O)[C@@H](Cc3ccccc3)C[C@@H]2Cc2ccccc2)cc1 ... 9.30

Next, consider the following compound.
Recorded result, "COc1ccc(S(=O)(=O)N(CC2CCCC2)C[C@@H](O)CN2C(=O)COC[C@@H]2Cc2ccccc2)cc1" , pKi: 6.00
